System: Staphylococcus aureus
procedure-summary: Antibacterial activity against Staphylococcus aureus incubated for 20 hrs by microbroth dilution method
Assay type: functional
quantity-name: log10(MIC) (log10 of the value in µg/mL)
Please interpret these as log10 of MIC where MIC is in µg/mL.

Please review the following examples before continuing.
CN[C@@H]1[C@H](O[C@H]2[C@H](O[C@H]3[C@H](O)[C@@H](O)[C@H](N=C(N)N)[C@@H](O)[C@@H]3N=C(N)N)O[C@@H](C)[C@]2(O)C=O)O[C@@H](CO)[C@H](O)[C@H]1O: 0.49
Fc1cc(F)c2[nH]c3ccccc3c2c1F: 0.80
CC1(C)S[C@@H]2[C@H](NC(=O)[C@H](N)c3ccccc3)C(=O)N2[C@H]1C(=O)O: -0.70

--- query ---
Problem: Answer with the recorded log10(MIC) of Fc1cc(F)c2c(c1)[nH]c1cc(C(F)(F)F)ccc12 only.
Solution: -0.41

Source listed as ChEMBL document CHEMBL3763069.
